Some compounds, each annotated with its measured EC50.
# system.name: human muscarinic M1 receptor (Homo sapiens, UniProt P11229)
# Construct: expressed in transfected cells
# Sequence (P11229 1-460): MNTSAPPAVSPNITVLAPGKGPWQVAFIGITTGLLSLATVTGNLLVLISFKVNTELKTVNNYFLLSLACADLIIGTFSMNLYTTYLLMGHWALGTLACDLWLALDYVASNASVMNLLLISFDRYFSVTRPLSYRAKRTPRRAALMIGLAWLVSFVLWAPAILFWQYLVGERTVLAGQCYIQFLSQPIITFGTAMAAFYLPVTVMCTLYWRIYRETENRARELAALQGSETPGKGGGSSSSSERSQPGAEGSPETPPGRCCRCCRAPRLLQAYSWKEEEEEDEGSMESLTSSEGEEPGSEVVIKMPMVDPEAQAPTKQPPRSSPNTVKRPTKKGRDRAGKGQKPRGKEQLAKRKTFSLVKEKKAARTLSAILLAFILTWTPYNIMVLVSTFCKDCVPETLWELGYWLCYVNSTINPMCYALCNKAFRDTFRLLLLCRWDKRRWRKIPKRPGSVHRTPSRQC
# measurement.notes: Alphascreen Surefire phospho-ERK1/2 functional assay, M1
# Assay type: cell-based
# experimental.setup: CHO cells stably expressing human M1; phospho-ERK1/2; read-out: pEC50 M1 (converted)
Answer format: numeric, nM implied, no suffix.

Some compounds with recorded EC50:
# compound, EC50 (nM)
data = [
    ("CCOC(=O)N1CCC2(CC(N3CCC4(CC3)CC(=O)NN4CC)C2)C1 (single isomer, unassigned) [6-2 Isomer 2]", 63.1),
    ("CCCN1C(=O)OC2(CCN(C3CC4(CCN(C(=O)OCC)C4)C3)CC2)C1(C)C (single isomer, unassigned) [4-37 Isomer 2]", 794),
    ("CCOC(=O)N1CCC2(CC(N3CCC4(CC3)OC(=O)N(CC)C4CC)C2)C1 (single isomer, unassigned) [4-22 Isomer 4]", 200),
    ("CCOC(=O)N1CCC2(CC(N3CCC4(CC3)OC(=O)N(CC(C)C)C4CC)C2)C1 (single isomer, unassigned) [4-24 Isomer 2 (racemic)]", 501),
    ("CCOC(=O)N1CC2(CC(N3CCC4(CC3)OC(=O)N(CC)C4CC)C2)C1 (racemic) [2-2 racemic]", 2000),
    ("CCCN1C(=O)OC2(CCN(C3CC4(CCN(C(=O)OCC)C4)C3)CC2)C1CC (single isomer, unassigned) [4-23 Isomer 3]", 316),
    ("CCOC(=O)N1CCC2(CC(N3CCC4(CC3)CC(=O)NC4Cc3ccccc3)C2)C1 (single isomer, unassigned) [3-8 Isomer 2]", 12.6),
    ("CCOC(=O)N1CCC2(CC(N3CCC4(CC3)OC(=O)N(CCF)C4(C)C)C2)C1 (single isomer, unassigned) [4-40 Isomer 2]", 7940),
]

Lab note: next compound to report on.
Query: Please look at this compound and report its EC50: CCOC(=O)N1CCC2(CC(N3CCC4(CC3)CC(=O)NC4CC)C2)C1 (single isomer, unassigned) [3-5 Isomer 2]
Response: 25.1

* * *

# system.name: UniProt:P20309
# measurement.notes: Alphascreen Surefire phospho-ERK1/2 functional assay, M3
Some compounds, each annotated with its measured EC50.

# compound, EC50
measured = [
    ("CCOC(=O)N1CCC2(CC(N3CCC4(CC3)OC(=O)N(CCF)C4(C)C)C2)C1 (single isomer, unassigned) [4-40 Isomer 2]", "> 20 µM"),
    ("CCOC(=O)N1CCC2(CC(N3CCC4(CC3)OC(=O)N(CC(F)(F)F)C4(C)C)C2)C1 (single isomer, unassigned) [4-43 Isomer 2]", "> 20 µM"),
]

Query: Please look at this compound and report its EC50: CCOC(=O)N1CCC2(CC(N3CCC4(CC3)OC(=O)N3CCCC34)C2)C1 (single isomer, unassigned) [4-44 Isomer 3]
Response: > 20 µM

* * *

# system.name: human muscarinic M3 receptor (Homo sapiens)
# Sequence (P20309 whole entry): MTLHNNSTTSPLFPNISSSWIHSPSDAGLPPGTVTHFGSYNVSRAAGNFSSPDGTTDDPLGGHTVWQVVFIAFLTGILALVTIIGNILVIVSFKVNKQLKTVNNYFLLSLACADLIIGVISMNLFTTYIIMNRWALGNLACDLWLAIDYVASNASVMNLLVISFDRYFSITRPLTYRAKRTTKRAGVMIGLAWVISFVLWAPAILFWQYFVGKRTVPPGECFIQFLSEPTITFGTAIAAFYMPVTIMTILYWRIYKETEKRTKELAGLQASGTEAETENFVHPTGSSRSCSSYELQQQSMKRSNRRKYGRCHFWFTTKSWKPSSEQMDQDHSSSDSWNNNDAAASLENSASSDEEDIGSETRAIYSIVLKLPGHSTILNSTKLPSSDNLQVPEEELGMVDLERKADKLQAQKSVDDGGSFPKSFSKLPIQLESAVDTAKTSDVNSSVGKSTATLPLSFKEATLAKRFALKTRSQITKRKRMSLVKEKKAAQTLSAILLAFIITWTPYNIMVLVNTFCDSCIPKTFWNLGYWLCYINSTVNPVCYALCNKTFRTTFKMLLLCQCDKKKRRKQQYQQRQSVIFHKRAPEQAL
# measurement.notes: Alphascreen Surefire phospho-ERK1/2 functional assay, M3
# experimental.setup: CHO, read-out: M3 % Emax cf. ACh, CHO cells stably expressing human M3; Emax relative to ACh
endpoint.label: Emax (%)
Answer format: numeric, % implied, no suffix.

# molecule, unit.name, Emax
rows = [
    ("COC(=O)N1CCC2(CC(N3CCC4(CC3)CNC(=O)C4)C2)C1 (single isomer, unassigned) [3-1 Isomer 2]", "%", 20),
    ("CCOC(=O)N1CCC2(CC(N3CCC4(CNC(=O)C4)C(F)C3)C2)C1 (single isomer, unassigned) [3-9 Isomer 2]", "%", 14),
    ("CCCN1CC2(CCN(C3CC4(CCN(C(=O)OCC)C4)C3)CC2)OC1=O (single isomer, unassigned) [4-7 Isomer 2]", "%", 2),
    ("CCOC(=O)N1CC2(CC(N3CCC4(CC3)OC(=O)N(CC)C4(C)C)C2)C1", "%", 24),
    ("CCOC(=O)N1CC2(CCC(N3CCC4(CC3)OC(=O)NC4(C)C)C2)C1 (single isomer, unassigned) [8-3 Isomer 2]", "%", 4),
    ("CCOC(=O)N1CCC2(CC(N3CCC4(CC3)OC(=O)N(CCOC)C4(C)C)C2)C1 (single isomer, unassigned) [4-41 Isomer 2]", "%", 42),
]

Query: Please look at this molecule and report its Emax: CCOC(=O)N1CCC2(CC(N3CCC4(CC3)CC(=O)NC4CC)C2)C1 (single isomer, unassigned) [3-5 Isomer 2]
Response: 10

Query: Please look at this molecule and report its Emax: CCOC(=O)N1CC2(CCC(N3CCC4(CC3)OC(=O)N(CC)C4CC)C2)C1 (mixture of isomers) [8-2 mixture of diastereomers]
Response: 1

Query: Please look at this molecule and report its Emax: CCN1NC(=O)CC12CCN(C1CC3(CCN(C(=O)OC)C3)C1)CC2 (single isomer, unassigned) [6-1 Isomer 2]
Response: 11

Query: Please look at this molecule and report its Emax: CCOC(=O)N1CC2(CC(N3CCC4(CC3)OC(=O)N(CC)C4CC)C2)C1 (racemic) [2-2 racemic]
Response: 27

Query: Please look at this molecule and report its Emax: CCOC(=O)N1CCC2(CC(N3CCC4(CC3)OC(=O)N(CC(F)(F)F)C4(C)C)C2)C1 (single isomer, unassigned) [4-43 Isomer 2]
Response: 6

Query: Please look at this molecule and report its Emax: COC(=O)N1CCC2(CC(N3CCC4(CC3)CC(=O)NC4Cc3ccccc3)C2)C1 (single isomer, unassigned) [3-7 Isomer 2]
Response: 14

Query: Please look at this molecule and report its Emax: CCOC(=O)N1CCC2(CC(N3CCC4(CC3)CNC(=O)O4)C2)C1 (single isomer, unassigned) [4-3 Isomer 2]
Response: 7

Query: Please look at this molecule and report its Emax: CCCN1NC(=O)CC12CCN(C1CC3(CCN(C(=O)OCC)C3)C1)CC2 (single isomer, unassigned) [6-4 Isomer 2]
Response: 26

Query: Please look at this molecule and report its Emax: CCCN1C(=O)OC2(CCN(C3CC4(CCN(C(=O)OCC)C4)C3)CC2)C1(C)C (single isomer, unassigned) [4-37 Isomer 1]
Response: 7

Query: Please look at this molecule and report its Emax: CCCN1C(=O)OC2(CCN(C3CC4(CCN(C(=O)OC)C4)C3)CC2)C1(C)C (single isomer, unassigned) [4-36 Isomer 2]
Response: 1

Query: Please look at this molecule and report its Emax: CCCN1C(=O)OC2(CCN(C3CC4(CCN(C(=O)OCC)C4)C3)CC2)C1CC (single isomer, unassigned) [4-23 Isomer 3]
Response: 4

Query: Please look at this molecule and report its Emax: CCOC(=O)N1CCC2(CC(N3CCC4(CC3)CC(=O)NC4Cc3ccccc3)C2)C1 (single isomer, unassigned) [3-8 Isomer 2]
Response: 53

* * *

# system.name: human muscarinic M3 receptor (Homo sapiens)
# measurement.notes: Alphascreen Surefire phospho-ERK1/2 functional assay, M3
# experimental.setup: CHO, read-out: M3 % Emax cf. ACh, CHO cells stably expressing human M3; Emax relative to ACh
Threshold check on Emax: at or above 8% gives class 1, strictly below gives class 0.

# compound, qualitative.label
measured = [
    ("CCOC(=O)N1CCC2(CC(N3CCC4(CC3)OC(=O)N(C)C4CC)C2)C1 (single isomer, unassigned) [4-20 Isomer 3]", "class 0"),
    ("CCOC(=O)N1CCC2(CC(N3CCC4(CC3)OC(=O)N(CC(C)C)C4CC)C2)C1 (single isomer, unassigned) [4-24 Isomer 2 (racemic)]", "class 0"),
    ("CCOC(=O)N1CCC2(CC(N3CCC4(CC3)OC(=O)NC4C)C2)C1 (single isomer, unassigned) [4-11 Isomer 2]", "class 0"),
    ("CCOC(=O)N1CCC2(CC(N3CCC4(CC3)CC(=O)N(CC)N4CC)C2)C1 (single isomer, unassigned) [6-8 Isomer 2]", "class 1"),
    ("CCN1C(=O)OC2(CCN(C3CC4(CCN(C(=O)OC)C4)C3)CC2)C1(C)C (single isomer, unassigned) [4-34 Isomer 2]", "class 0"),
]

Query: Item CCOC(=O)N1CCC2(CC(N3CCC4(CC3)OC(=O)N(OC)C4CC)C2)C1 (mixture of isomers) [4-48 mixture of diastereomers] with Emax of 8% or above?
Response: class 1

Query: Item CCOC(=O)N1CC2(CCC(N3CCC4(CC3)CNC(=O)C4)C2)C1 (racemic) [7-1 racemic] with Emax of 8% or above?
Response: class 0

Query: Item CCOC(=O)N1CCC2(CC(N3CCC4(CC3)CNC(=O)C4)C2)C1 (single isomer, unassigned) [3-2 Isomer 2] with Emax of 8% or above?
Response: class 0

Query: Item CCOC(=O)N1CCC2(CC(N3CCC4(CC3)CC(=O)NN4Cc3ccccc3)C2)C1 (single isomer, unassigned) [6-6 Isomer 2] with Emax of 8% or above?
Response: class 0

Query: Item CCOC(=O)N1CCC2(CC(N3CCC4(CC3)OC(=O)NC4CC(F)(F)F)C2)C1 (single isomer, unassigned) [4-17 Isomer 1 (racemic)] with Emax of 8% or above?
Response: class 1

Query: Item COC(=O)N1CCC2(CC(N3CCC4(CC3)CNC(=O)O4)C2)C1 (single isomer, unassigned) [4-1 Isomer 2] with Emax of 8% or above?
Response: class 1

Query: Item CCOC(=O)N1CCC2(CC(N3CCC4(CC3)OC(=O)N(CC)C4CC)C2)C1 (single isomer, unassigned) [4-22 Isomer 3] with Emax of 8% or above?
Response: class 0

Query: Item CCOC(=O)N1CCC2(CC(N3CCC4(CC3)CC(=O)NC4C)C2)C1 (single isomer, unassigned) [3-3 Isomer 2] with Emax of 8% or above?
Response: class 0
